Biological target: T1, recombinant human CD123 protein (CD123)-His Acrobio #ILA-H52H6 (human, UniProt P26951 19-305)
T1 construct: Bought protein; also called hu IL-3R alpha (CD123)-His; not shown: His tag
T1 sequence (looked up): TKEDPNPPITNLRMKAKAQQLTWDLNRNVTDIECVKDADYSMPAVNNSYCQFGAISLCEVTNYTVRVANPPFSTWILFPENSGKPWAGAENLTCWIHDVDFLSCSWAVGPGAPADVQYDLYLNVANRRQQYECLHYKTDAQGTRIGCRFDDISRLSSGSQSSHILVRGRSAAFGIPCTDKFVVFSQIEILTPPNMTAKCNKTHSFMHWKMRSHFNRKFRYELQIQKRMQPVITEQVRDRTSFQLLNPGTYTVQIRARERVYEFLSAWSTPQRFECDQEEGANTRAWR
Test: BLI (Octet), CD123-His on anti-penta-His sensors, IgG in solution, 1:1 global fit
Here, each record is paired with measured kon data.
Enter your answer as a number in M⁻¹ s⁻¹; do not include the unit.

>  <Binder>
h32716-2-1 IgG (antibody, V domains shown, Human IgG format) VH: QVQLVQSGAEVKKPGSSVKVSCKASGYIFTNYGMNWVKQAPGQGLEWMGWINTYTGESTYSADFKGRFTFTLDESTSTAYMELSSLRSEDTAVYYCARSGGYDPMDYWGQGTLVTVSS VL: DIVMTQSPDSLAVSLGERATINCRASESVDNYGNTFMHWYQQKPGQPPKLLIYRASNLESGVPDRFSGSGSGTDFTLTISSLQAEDVAVYYCQQSNEDPPTFGQGTRLEIK

>  <Unit annotation>
M⁻¹ s⁻¹

>  <kon>
1.1e+06

$$$$
>  <Binder>
h32716-3-1 IgG (antibody, V domains shown, Human IgG format) VH: QVQLVQSGAEVKKPGSSVKVSCKASGYIFTNYGMNWVKQAPGQGFKWMGWINTYTGESTYSADFKGRFTFTLDESTSTAYMELSSLRSEDTAVYYCARSGGYDPMDYWGQGTLVTVSS VL: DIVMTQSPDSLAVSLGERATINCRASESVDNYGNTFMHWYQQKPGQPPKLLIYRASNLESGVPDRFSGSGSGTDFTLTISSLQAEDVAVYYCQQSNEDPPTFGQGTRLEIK

>  <Unit annotation>
M⁻¹ s⁻¹

>  <kon>
1.2e+06

$$$$
>  <Binder>
32716 IgG (antibody, V domains shown, Parental mouse variable domains cloned into human IgG format; detected with anti-human kappa; also called original mouse antibody) VH: QIQLVQSGPELKKPGETVKISCKASGYIFTNYGMNWVKQAPGKSFKWMGWINTYTGESTYSADFKGRFAFSLETSASTAYLHINDLKNEDTATYFCARSGGYDPMDYWGQGTSVTVSS VL: DIVLTQSPASLAVSLGQRATISCRASESVDNYGNTFMHWYQQKPGQPPKLLIYRASNLESGIPARFSGSGSRTDFTLTINPVEADDVATYYCQQSNEDPPTFGAGTKLELK

>  <Unit annotation>
M⁻¹ s⁻¹

>  <kon>
710000

$$$$
>  <Binder>
h32716-1-1 IgG (antibody, V domains shown, Human IgG format) VH: QVQLVQSGAEVKKPGSSVKVSCKASGYIFTNYGMNWVRQAPGQGLEWMGWINTYTGESTYSADFKGRVTITADESTSTAYMELSSLRSEDTAVYYCARSGGYDPMDYWGQGTLVTVSS VL: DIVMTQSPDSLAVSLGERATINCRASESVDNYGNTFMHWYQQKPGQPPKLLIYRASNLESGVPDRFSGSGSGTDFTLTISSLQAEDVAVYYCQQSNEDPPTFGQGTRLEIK

>  <Unit annotation>
M⁻¹ s⁻¹

>  <kon>
940000

$$$$
>  <Binder>
h32716-5-2 IgG (antibody, V domains shown, Human IgG format) VH: QVQLVQSGPELKKPGASVKVSCKASGYIFTNYGMNWVKQAPGQGLEWMGWINTYTGESTYSADFKGRFVFSLDTSVSTAYLQISSLKAEDTAVYYCARSGGYDPMDYWGQGTLVTVSS VL: DIQMTQSPSSLSASVGDRVTITCRASESVDNYGNTFMHWYQQKPGKAPKLLIYRASNLESGVPSRFSGSGSGTDFTFTISSLQPEDIATYYCQQSNEDPPTFGQGTKVEIK

>  <Unit annotation>
M⁻¹ s⁻¹

>  <kon>
700000

$$$$

Value of measured kon for the entry h32716-4-2 IgG (antibody, V domains shown, Human IgG format) VH: QVQLVQSGPELKKPGASVKVSCKASGYIFTNYGMNWVRQAPGQGLEWMGWINTYTGESTYSADFKGRFVFSLDTSVSTAYLQISSLKAEDTAVYYCARSGGYDPMDYWGQGTLVTVSS VL: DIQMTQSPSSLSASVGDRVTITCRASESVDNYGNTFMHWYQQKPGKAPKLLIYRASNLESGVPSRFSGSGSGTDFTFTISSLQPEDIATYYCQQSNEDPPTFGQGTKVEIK : 770000
